- System: MCF7 breast
- method.description: NCI tumour cell line growth inhibition, 48 h
outcome.measure: GI50

compound	recorded.result
OCC1OC(n2cnc3c(=S)nc[nH]c32)C(O)C1O (stereo unspecified)	1.82 µM
Nc1n[nH]c2cccc(C#Cc3cccc(C(=O)Nc4cc(CN5CCOCC5)cc(C(F)(F)F)c4)c3)c12	3.28 µM
COc1cc2c3c(n(C)c(=O)c2cc1OC)-c1cc2c(cc1/C3=C\C(N)CN)OCO2 (stereo unspecified)	0.51 µM

Each compound below has a recorded value; state its GI50.
1. Nc1ccc(-c2ccc(N)cc2I)c(I)c1
2. Nc1nc(N)c(N=O)c(OCC2CCCCC2)n1

Output:
1: 18.4 µM; 2: 3.46 µM

Input: What does the data say about its GI50? Entry: Cc1ccc2c(c1)C(=O)c1c-2n(CCCBr)c(=O)c2cc([N+](=O)[O-])ccc12
Output: 4.46 µM
